targetOfAssay: Diacylglycerol lipase-alpha (Homo sapiens, UniProt Q9Y4D2)
Sequence (Q9Y4D2 whole entry): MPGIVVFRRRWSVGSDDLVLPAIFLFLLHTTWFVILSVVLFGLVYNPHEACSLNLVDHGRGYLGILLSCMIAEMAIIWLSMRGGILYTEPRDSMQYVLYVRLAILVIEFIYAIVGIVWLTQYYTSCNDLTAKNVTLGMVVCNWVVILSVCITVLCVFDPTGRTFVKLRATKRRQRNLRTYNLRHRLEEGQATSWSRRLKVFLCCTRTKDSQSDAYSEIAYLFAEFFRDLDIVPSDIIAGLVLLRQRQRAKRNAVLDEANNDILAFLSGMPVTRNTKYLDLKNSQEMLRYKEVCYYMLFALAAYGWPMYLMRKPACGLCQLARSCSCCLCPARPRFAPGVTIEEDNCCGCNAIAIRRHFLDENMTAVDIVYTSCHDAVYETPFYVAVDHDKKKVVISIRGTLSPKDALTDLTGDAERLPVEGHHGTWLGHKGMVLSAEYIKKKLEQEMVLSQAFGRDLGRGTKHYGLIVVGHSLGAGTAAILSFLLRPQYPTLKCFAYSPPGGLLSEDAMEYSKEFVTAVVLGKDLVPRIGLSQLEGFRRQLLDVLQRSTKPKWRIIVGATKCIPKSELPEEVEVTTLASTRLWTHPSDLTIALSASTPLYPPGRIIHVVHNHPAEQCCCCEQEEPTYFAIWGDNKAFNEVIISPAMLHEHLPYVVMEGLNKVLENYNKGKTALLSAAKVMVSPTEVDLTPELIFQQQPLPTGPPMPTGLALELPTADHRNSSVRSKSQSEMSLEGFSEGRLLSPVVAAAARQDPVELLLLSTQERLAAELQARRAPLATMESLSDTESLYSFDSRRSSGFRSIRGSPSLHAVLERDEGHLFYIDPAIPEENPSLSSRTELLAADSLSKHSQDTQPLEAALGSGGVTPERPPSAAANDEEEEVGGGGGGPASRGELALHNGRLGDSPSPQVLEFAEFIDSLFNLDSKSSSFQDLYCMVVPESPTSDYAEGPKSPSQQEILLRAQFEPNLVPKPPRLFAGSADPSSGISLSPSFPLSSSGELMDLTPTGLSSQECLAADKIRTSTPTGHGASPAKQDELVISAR
assayRemarks: Inhibition of full length recombinant human DAGLalpha expressed in HEK293T cell membranes using PNP butyrate as substrate by colorimetric assay
Set-up: species or system HEK-293T
Recorded IC50, one value per entry.

- molecule: "COc1ccc(CC2CCCCN2C(=O)n2ncc(C(O)(c3ccc(F)cc3)c3ccc(F)cc3)n2)cc1 (stereo not drawn)"
  IC50 (nM): 5.01
- molecule: "CC(O)(c1ccccc1)c1cnn(C(=O)N2CCCCC2Cc2ccccc2)n1 (stereo not drawn)"
  IC50 (nM): 398
- molecule: "O=C(N1C[C@@H](O)CC[C@@H]1Cc1ccccc1)n1ncc(C(O)(c2ccc(F)cc2)c2ccc(F)cc2)n1"
  IC50 (nM): 6310
- molecule: "CO[C@H]1CC[C@H](Cc2ccccc2)N(C(=O)n2ncc(C(O)(c3ccc(F)cc3)c3ccc(F)cc3)n2)C1"
  IC50 (nM): 7.94
- molecule: "O=C(N1CCCCC1Cc1ccccc1)n1ncc(C(O)(c2ccccn2)c2ccccn2)n1 (stereo not drawn)"
  IC50 (nM): 158
- molecule: "O=C(N1C[C@H](OCC2CC2)CC[C@@H]1Cc1ccccc1)n1ncc(C(O)(c2ccc(F)cc2)c2ccc(F)cc2)n1"
  IC50 (nM): 0.631
- molecule: "O=C(N1CCCCC1COc1ccc(F)cc1)n1ncc(C(O)(c2ccccc2)c2ccccc2)n1 (stereo not drawn)"
  IC50 (nM): 6.31

----------
Organism: Mus musculus
assayRemarks: Selectivity ratio of IC50 for ABHD6 in mouse brain membrane proteome to IC50 for DAGLalpha in mouse brain membrane proteome
Type: cell membranes

- smilesRecord: "CO[C@H]1CC[C@H](Cc2ccccc2)N(C(=O)n2ncc(C(O)(c3ccc(F)cc3)c3ccc(F)cc3)n2)C1"
  Ratio IC50: 5
- smilesRecord: "C#CCO[C@@H]1CC[C@H](Cc2ccccc2)N(C(=O)n2ncc(C(O)(c3ccc(F)cc3)c3ccc(F)cc3)n2)C1"
  Ratio IC50: 126
- smilesRecord: "O=C(N1C[C@H](OCC2CC2)CC[C@@H]1Cc1ccccc1)n1ncc(C(O)(c2ccc(F)cc2)c2ccc(F)cc2)n1"
  Ratio IC50: 160
- smilesRecord: "CO[C@@H]1CC[C@H](Cc2ccccc2)N(C(=O)n2ncc(C(O)(c3ccc(F)cc3)c3ccc(F)cc3)n2)C1"
  Ratio IC50: 25
- smilesRecord: "O=C(N1C[C@@H](OCC2CC2)CC[C@@H]1Cc1ccccc1)n1ncc(C(O)(c2ccc(F)cc2)c2ccc(F)cc2)n1"
  Ratio IC50: 145

----------
targetOfAssay: Diacylglycerol lipase-alpha (Homo sapiens, UniProt Q9Y4D2)
assayRemarks: Inhibition of full length recombinant human DAGLalpha expressed in HEK293T cell membranes using PNP butyrate as substrate by colorimetric assay
Set-up: species or system HEK-293T
pIC50: −log10 of the molar value.
The entries below are paired with their reported pIC50.
assayEndpoint: pIC50

- molecule: "CCC1CCCCN1C(=O)n1ncc(C(O)(c2ccccc2)c2ccccc2)n1 (stereo not drawn)"
  result: 7.20
- molecule: "O=C(N1CCCCC1Cc1ccccc1)n1ncc(C2(O)CCCCC2)n1 (stereo not drawn)"
  result: 5.80
- molecule: "O=C(N1CCCCC1Cc1ccccc1)n1ncc(C(O)(C2CCCCC2)C2CCCCC2)n1 (stereo not drawn)"
  result: 7.00
- molecule: "O=C(N1CCCCC1Cc1ccccc1)n1cc(C(O)(c2ccccc2)c2ccccc2)nn1 (stereo not drawn)"
  result: 7.60
- molecule: "O=C(N1CCCCC1COc1ccccc1)n1ncc(C(O)(c2ccc(F)cc2)c2ccc(F)cc2)n1 (stereo not drawn)"
  result: 8.30
- molecule: "COC(c1ccc(F)cc1)(c1ccc(F)cc1)c1cnn(C(=O)N2CCCCC2Cc2ccccc2)n1 (stereo not drawn)"
  result: 7.90
- molecule: "CO[C@@H]1CC[C@H](Cc2ccccc2)N(C(=O)n2ncc(C(O)(c3ccc(F)cc3)c3ccc(F)cc3)n2)C1"
  result: 9.10
- molecule: "O=C(N1C[C@H](O)CC[C@@H]1Cc1ccccc1)n1ncc(C(O)(c2ccc(F)cc2)c2ccc(F)cc2)n1"
  result: 7.70
- molecule: "CC(C)(O)c1cnn(C(=O)N2CCCCC2Cc2ccccc2)n1 (stereo not drawn)"
  result: 5.30
- molecule: "COc1cccc(CC2CCCCN2C(=O)n2ncc(C(O)(c3ccc(F)cc3)c3ccc(F)cc3)n2)c1 (stereo not drawn)"
  result: 8.50
- molecule: "O=C(N1CCCCC1COc1ccccc1)n1ncc(C(O)(c2ccccc2)c2ccccc2)n1 (stereo not drawn)"
  result: 8.10
- molecule: "O=C(N1C[C@H](O)C=C[C@@H]1Cc1ccccc1)n1ncc(C(O)(c2ccc(F)cc2)c2ccc(F)cc2)n1"
  result: 7.90
- molecule: "O=C(N1C[C@@H](OCC2CC2)CC[C@@H]1Cc1ccccc1)n1ncc(C(O)(c2ccc(F)cc2)c2ccc(F)cc2)n1"
  result: 7.70
